# key: entry, value: melting point

// below: answered compounds
{"columns": ["Chemical Smiles", "melting point"],
 "data": [
  ["CN1CCN(CCCNc2ccc(Cl)cc2N)CC1", "88 to 90 °C"],
  ["Cc1ccccc1Sc1cccc(CC(=O)O)c1O", "96 to 97 °C"],
  ["CCOC(=O)C(=O)Nc1ccc2cc(Br)ccc2c1[N+](=O)[O-]", "175 °C"],
  ["Cc1nncn1-c1ccc(Cl)cc1C(=O)O", "252 to 254 °C"],
  ["CCCCCCSc1cc(SCCCCCC)c2ccc3c(SCCCCCC)cc(SCCCCCC)c4ccc1c2c43", "92 °C"]
]}

Now consider a different compound.
[in] Kindly indicate its recorded melting point. Item: "Clc1ccc2nc(Cl)c(I)n2c1"
[out] 234 to 235 °C
